The reported measurements were obtained from patent US11964052B2.

Assay: Apparent pKa of LNP formulations, TNS fluorescence assay
Assay type: physicochemical
Conditions: LNP cationic lipid/DSPC/cholesterol/DMG-PEG 50/10/38.5/1.5 mol %, pH 3 to 9
Procedure: As reported in literature, the apparent pKa of LNP formulations correlates with the delivery efficiency of LNPs for nucleic acids in vivo. The apparent pKa of each formulation was determined using an assay based on fluorescence of 2-(p-toluidino)-6-napthalene sulfonic acid (TNS). […] A sigmoidal best fit analysis was applied to the fluorescence data and the pKa value was measured as the pH giving rise to half-maximal fluorescent intensity.
Give Yes when the value for Apparant Pka is at least 6. Give No when it is less.

COMPOUND	LABEL VALUE
CCCCCCCCCCCCOCC(O)CN(CCCCCC(=O)OCC(CCCCCC)CCCCCCCC)CCN(C)C (stereo not drawn) [Compound 7]	Yes
CCCCCCCCC(CCCCCCCC)COC(=O)CCOCC(CN(C)CCN(CCO)C1CC1)OCCC(=O)OCC(CCCCCCCC)CCCCCCCC (stereo not drawn) [Compound 70]	Yes
CCCCCCCCC(CCCCCC)CC(=O)OCC(CCCCN(CCO)C1CCCCC1)COC(=O)CC(CCCCCC)CCCCCCCC (stereo not drawn) [Compound 68]	Yes
CCCCCCCCCCCCOCC(CN(CCO)CCCCCC(=O)OCC(CCCCCC)CCCCCCCC)OC(=O)CCCCC (stereo not drawn) [Compound 14]	No
CCCCCCCCCCC(=O)OCC(CCCCN(CCO)C1CCCC1)COC(=O)CC(CCCCCC)CCCCCCCC (stereo not drawn) [Compound 84]	Yes

Now consider a different compound.
Evaluate CCCCCCCCC(CCCCCCCC)CC(=O)OCC(CCCCN(CC)CCN(CCO)C1CCC1)COC(=O)CC(CCCCCCCC)CCCCCCCC [Compound 67] : Apparant Pka at minimum 6? Yes

----------
I'd appreciate it if you could supply size (nm) values for the items below.
Experiment: Lipid nanoparticle size and polydispersity by dynamic light scattering (Malvern Zetasizer Nano ZS)
Assay type: physicochemical
Conditions: LNP of cationic lipid/DSPC/cholesterol/PEG-lipid 50:10:38.5:1.5 with mRNA
Give bare numbers, in nm.

Please state, for each entry, its recorded size (nm).
1. CCCCCCCCCCC(=O)OCC(CCCCN(CCN(CCO)C1CCC1)C1CCC1)COC(=O)CC(CCCCCC)CCCCCCCC (stereo not shown) [Compound 82]
2. CCCCCCCCCCCCOCC(O)CN(CCO)CCCCCC(=O)OCC(CCCCCC)CCCCCCCC (stereo not shown) [Compound 13]

84.46
61.3

----------
I'd appreciate it if you could supply polydispersity values for the items below.
Test: Lipid nanoparticle size and polydispersity by dynamic light scattering (Malvern Zetasizer Nano ZS)
Type: physicochemical
Settings: LNP of cationic lipid/DSPC/cholesterol/PEG-lipid 50:10:38.5:1.5 with mRNA
One number for each entry.

For orientation, consider the following solved cases.
COMPOUND	polydispersity
CCCCC/C=C\C/C=C\CCCCCCCC(=O)OCC(CCCCN(CCO)C1CCCCCC1)COC(=O)CC(CCCCCC)CCCCCCCC (stereo not shown)	0.111
CCCCCCCCC(CCCCCCCC)COC(=O)CCOCC(CN(C)CCN(CCO)C1CCCCCCC1)OCCC(=O)OCC(CCCCCCCC)CCCCCCCC (stereo not shown)	0.031
CCCCCCCCCCCCOCC(CN(CCO)CCCCCC(=O)OCC(CCCCCC)CCCCCCCC)OC(=O)CCCCC (stereo not shown)	0.4
CCCCCCCCCC(CCCCC)COC(=O)CCOCC(CN(CCO)C1CCC1)OCCC(=O)OCC(CCCCCC)CCCCCCCC (stereo not shown)	0.097
CCCCCCCCCCCCCCCC(=O)OCC(CCCCN(CCO)C1CCC1)COC(=O)CC(CCCCCC)CCCCCCCC (stereo not shown)	0.01
CCCCCCCCC(CCCCCC)CC(=O)OCC(CCCCN(CCN(CCO)CCCC)C1CCC1)COC(=O)CC(CCCCCC)CCCCCCCC (stereo not shown)	0.011
CCCCCCCCC(CCCCCCCC)CC(=O)OCC(CCCCN(CCO)C1CCC1)COC(=O)CC(CCCCCCCC)CCCCCCCC	0.107
CCCCCCCCCCCCOCC(O)CN(CCCCCC(=O)OCC(CCCCCC)CCCCCCCC)CCN(CC)CC (stereo not shown)	0.196
CCCCCCCCCCCCOCC(CN(CCO)C1CCC1)OC(=O)CCCCC (stereo not shown)	0.124
CCCCCCCCCCC(=O)OCC(CCCCN(CC=C(C)C)CCO)COC(=O)CC(CCCCCC)CCCCCCCC (stereo not shown)	0.04

Please state, for each entry, its recorded polydispersity.
1. CCCCCCCCCCCCOCC(CN(C)CCN(CCO)C1CCC1)OCCCCCCCCCCCC (stereo not shown)
2. CCCCCCCCC(CCCCCCCC)CC(=O)OCC(CCCCN(CCN(C)CCO)C1CCC1)COC(=O)CC(CCCCCCCC)CCCCCCCC
3. CCCCCCCCCCCCOCC(CN(CCCCCC(=O)OCCCCCCCCCC)CCN(CCO)C1CCC1)OCCCCCC (stereo not shown)

[0.162, 0.082, 0.031]

----------
Assay: Apparent pKa of LNP formulations, TNS fluorescence assay
Assay type: physicochemical
Conditions: LNP cationic lipid/DSPC/cholesterol/DMG-PEG 50/10/38.5/1.5 mol %, pH 3 to 9
Give satisfied when the value for Apparant Pka is at least 6. Give not satisfied when it is less.

MOLECULE	LABEL VALUE
CCCCCCCCCCCCOCC(CN(CCCCCC(=O)OCC(CCCCCC)CCCCCCCC)CCN(CCO)C1CCCC1)OCCCCCCCCCCCC (centres unmarked)	not satisfied

Evaluate CCCCCCCCCCCCOCC(CN(C)CCN(CCO)C1CCC1)OC(=O)CCCCCCCCCCC (centres unmarked) : Apparant Pka at minimum 6? satisfied

Evaluate CCCCCCCCC(CCCCCC)CC(=O)OCC(CCCCN(CCCC)CCN(CCO)C1CCC1)COC(=O)CC(CCCCCC)CCCCCCCC (centres unmarked) : Apparant Pka at minimum 6? satisfied

Evaluate CCCCCCCCCCCCOCC(CN(CCCCCC(=O)OCC(CCCCCC)CCCCCCCC)CCN(CCO)C1CC1)OCCCCCCCC (centres unmarked) : Apparant Pka at minimum 6? not satisfied

Evaluate CCCCCCCCC(CCCCCCCC)COC(=O)CCOCC(CN(C)CCN(CCO)C1CCC1)OCCC(=O)OCC(CCCCCCCC)CCCCCCCC (centres unmarked) : Apparant Pka at minimum 6? satisfied

Evaluate CCCCCCCCC(CCCCCCCC)COC(=O)CCOCC(CN(C)CCN(CCO)C1CCCCCC1)OCCC(=O)OCC(CCCCCCCC)CCCCCCCC (centres unmarked) : Apparant Pka at minimum 6? satisfied

Evaluate CCCCCCCCCCCCOCC(CN(CCCCCC(=O)OCCCCCCCCCC)CCN(CCO)C1CCC1)OCCCCCC (centres unmarked) : Apparant Pka at minimum 6? satisfied

Evaluate CCCCCCC(CCCCCC)COC(=O)CCCCCN(CCN1CCC(O)C1)CC(COC(=O)CCCCC)OC(=O)CCCCC (centres unmarked) : Apparant Pka at minimum 6? satisfied

Evaluate CCCCCCCCCCCCOCC(CN(CCCCCC(=O)OCC(CCCCCC)CCCCCCCC)CCN(CCO)C1CCCCC1)OCCCCCCCC (centres unmarked) : Apparant Pka at minimum 6? not satisfied

Evaluate CCCCCCCCC(CCCCCC)CC(=O)OCC(CCCCN(CC=C(C)C)CCO)COC(=O)CC(CCCCCC)CCCCCCCC (centres unmarked) : Apparant Pka at minimum 6? satisfied

Evaluate CCCCCCCCCCCCCCCC(=O)OCC(CCCCN(CCO)C1CCCCCC1)COC(=O)CC(CCCCCC)CCCCCCCC (centres unmarked) : Apparant Pka at minimum 6? satisfied

----------
Assay: Encapsulation efficiency of lipid nanoparticles, Quant-it Ribogreen RNA quantification assay
Type: physicochemical
Conditions: LNP with mRNA
I'd appreciate it if you could supply Encapsulation Efficiency values for the items below.

COMPOUND	MEASURE	RESULT
CCCCCCCCC(CCCCCCCC)CNC(=O)CCOCC(CN(C)CCN(CCO)C1CCCCCC1)OCCC(=O)NCC(CCCCCCCC)CCCCCCCC (stereo not drawn)	Encapsulation Efficiency	97.3%

Please state, for each entry, its recorded Encapsulation Efficiency.
1. CCCCCCCCCCCCOCC(CN(CCCCCC(=O)OCC(CCCCCC)CCCCCCCC)CCN(CCO)C1CCC1)OCCCCCCCCCCCC (stereo not drawn)
2. CCCCCCCCC(CCCCCC)CC(=O)OCC(CCCCN(CC=C(C)C)CCN(CCO)C1CCC1)COC(=O)CC(CCCCCC)CCCCCCCC (stereo not drawn)

["86.9%", "93.77%"]

----------
Experiment: Lipid nanoparticle size and polydispersity by dynamic light scattering (Malvern Zetasizer Nano ZS)
Type: physicochemical
Conditions: LNP of cationic lipid/DSPC/cholesterol/PEG-lipid 50:10:38.5:1.5 with mRNA
Field 'label' (enum: condition met / condition not met). Set to condition met when size (nm) is strictly under 80 nm; else condition not met.

COMPOUND	LABEL VALUE
CCCCCCCCC(CCCCCCCC)CC(=O)OCC(CCCCN(C)CCN(CCO)C1CCC1)COC(=O)CC(CCCCCCCC)CCCCCCCC	condition met

Report whether reported size (nm) is lower than 80 nm (strictly) for CCCCCCCCC(CCCCCC)CC(=O)OCC(CCCCN(CC=C(C)C)CCN(CCO)C1CCC1)COC(=O)CC(CCCCCC)CCCCCCCC (centres unmarked) condition not met

Report whether reported size (nm) is lower than 80 nm (strictly) for CCCCCCCCCCCCOCC(CN(C)CCO)OC(=O)CCCCCCCCCCC (centres unmarked) condition not met

Report whether reported size (nm) is lower than 80 nm (strictly) for CCCCCCCCCCCCCCCC(=O)OCC(CCCCN(CCO)C1CCCCCCC1)COC(=O)CC(CCCCCC)CCCCCCCC (centres unmarked) condition met

Report whether reported size (nm) is lower than 80 nm (strictly) for CCCCCCCCC(CCCCCC)CC(=O)OCC(CN(CCO)C1CCC1)OC(=O)CC(CCCCCC)CCCCCCCC (centres unmarked) condition met

Report whether reported size (nm) is lower than 80 nm (strictly) for CCCCCCCCCC(CCCCC)COC(=O)CCOCC(CN(CCO)C1CCC1)OCCC(=O)OCC(CCCCCC)CCCCCCCC (centres unmarked) condition met

Report whether reported size (nm) is lower than 80 nm (strictly) for CCCCCCCCC(CCCCCCCC)CNC(=O)CCOCC(CN(C)CCN(CCO)C1CCCCC1)OCCC(=O)NCC(CCCCCCCC)CCCCCCCC (centres unmarked) condition met

Report whether reported size (nm) is lower than 80 nm (strictly) for CCCCCCCCCCCCCCCC(=O)OCC(CCCCN(CCO)C1CCCC1)COC(=O)CC(CCCCCC)CCCCCCCC (centres unmarked) condition met

Report whether reported size (nm) is lower than 80 nm (strictly) for CCCCC/C=C\C/C=C\CCCCCCCC(=O)OCC(CN(C)CCN(CCO)C1CCC1)OC(=O)CCCCCCC/C=C\C/C=C\CCCCC (centres unmarked) condition met

Report whether reported size (nm) is lower than 80 nm (strictly) for CCCCCCCCCCCCOCC(CN(CCCCCC(=O)OCC(CCCCCC)CCCCCCCC)CCN(CCO)C1CCCC1)OCCCCCCCC (centres unmarked) condition met

Report whether reported size (nm) is lower than 80 nm (strictly) for CCCCCCCCCCCCOCC(CN(CCO)CCCCCC(=O)OCC(CCCCCC)CCCCCCCC)OC(=O)CC (centres unmarked) condition not met

Report whether reported size (nm) is lower than 80 nm (strictly) for CCCCCCCCCCCCOCC(CN(CCCCCC(=O)OCC(CCCCCC)CCCCCCCC)CCN(CCO)C1CCC1)OC(C)=O (centres unmarked) condition met

Report whether reported size (nm) is lower than 80 nm (strictly) for CCCCCCCCCCCCOCC(CN(CCO)C1CCC1)OC(=O)CCCCC (centres unmarked) condition not met
